Target: human sEH enzyme (Homo sapiens, UniProt P34913)
Construct: His-tag (N, cleaved yes); made in house; host or cells: E. coli
Sequence (P34913 whole entry): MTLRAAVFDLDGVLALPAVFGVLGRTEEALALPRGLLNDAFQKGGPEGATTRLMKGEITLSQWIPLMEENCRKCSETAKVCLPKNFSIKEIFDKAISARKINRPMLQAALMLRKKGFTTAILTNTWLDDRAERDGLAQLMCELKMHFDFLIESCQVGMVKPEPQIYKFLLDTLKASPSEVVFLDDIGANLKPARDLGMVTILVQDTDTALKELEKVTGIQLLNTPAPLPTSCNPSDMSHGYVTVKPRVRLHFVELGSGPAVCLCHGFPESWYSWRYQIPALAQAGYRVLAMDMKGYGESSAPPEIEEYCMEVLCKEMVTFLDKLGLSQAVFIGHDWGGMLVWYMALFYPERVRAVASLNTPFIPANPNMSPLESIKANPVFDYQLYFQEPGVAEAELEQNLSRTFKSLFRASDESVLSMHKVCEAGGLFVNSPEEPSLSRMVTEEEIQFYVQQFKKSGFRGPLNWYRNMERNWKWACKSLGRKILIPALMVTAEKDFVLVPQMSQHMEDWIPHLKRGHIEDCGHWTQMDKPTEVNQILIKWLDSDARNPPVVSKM
Assay: sEH human enzyme assay (fluorescence based enzyme in vitro assay)
Type: biochemical
Conditions: recombinant human sEH about 1 nM, fluorescence substrate S7 10 uM, pH7.0, 25° C.; read-out: IC50 [nM] for human sEH enzyme inhibition
Method: Preparation of Recombinant sEH Human Enzyme The DNA for expressing sEH was designed based on a […] sEH cDNA. Necessary Modifications were introduced to optimize for its expression both in E. coli and insect cells. […] Fluorescence Based Enzyme In Vitro Assay For each assay (100 ul), an aliquot of enzymes (about 1 nM final concentration) was incubated with a fluorescence substrate, S7 (10 uM final concentration), in sEH assay buffer (25 mM HEPES, pH7.0, 0.1 mg/ml BSA) in a 96-well plate. […]
Value Kind: IC50 (nM)

Below, 5 compounds whose answers are already recorded.
| Compound | Experimental Target | Value Kind | Unit Abbreviation | Endpoint Value |
| --- | --- | --- | --- | --- |
| O=C(O)CCCC1(c2ccccc2)CCCN(C(=O)Nc2ccc(Cl)cc2)C1 (stereo not drawn) | human sEH enzyme (Homo sapiens, UniProt P34913) | IC50 | nM | 12 |
| CC1(c2ccccc2)CCCN(C(=O)NCc2ccc(-c3ccc4[nH]ccc4c3)cc2)C1 (stereo not drawn) | human sEH enzyme (Homo sapiens, UniProt P34913) | IC50 | nM | 7 |
| CC1(c2ccccc2)CCCN(C(=O)NCCCCc2ccccc2)C1 (stereo not drawn) | human sEH enzyme (Homo sapiens, UniProt P34913) | IC50 | nM | 1 |
| N#CC1(Cc2ccccc2)CCCN(C(=O)Nc2ccc(C(F)(F)F)cc2)C1 (stereo not drawn) | human sEH enzyme (Homo sapiens, UniProt P34913) | IC50 | nM | 2 |
| O=C(Nc1ccc(Cl)cc1)N1CCCC(CCc2nnn[nH]2)(c2ccccc2)C1 (stereo not drawn) | human sEH enzyme (Homo sapiens, UniProt P34913) | IC50 | nM | 5 |

(A) CC1(c2ccccc2)CCCN(C(=O)NC2CC2c2ccccc2)C1 (stereo not drawn)
(B) CN(C)C(=O)C1(Cc2ccccc2)CCCN(C(=O)Nc2ccc(C(F)(F)F)cc2)C1 (stereo not drawn)
Quick check, higher IC50 between A and B ? Kindly state the label of the option you pick.
B
